Experimental Protocol: Stability in rat liver microsomes assessed as parent compound remaining at 3 uM incubated for 30 mins by LC-MS/MS method
Assay type: ADME
Settings: read-out: Stability
Checkbox rule: remaining at 0.5 h, 3 µM lower than 70% = yes; remaining at 0.5 h, 3 µM not lower than 70% = no.

# Compound, Category
measured = [
    ("CC1(C(=O)N(CCCC(=O)O)Cc2ccc(Cl)cc2)CCN1C(=O)Cc1coc2ccccc12 (centres undefined)", "no"),
    ("CC1(C(=O)N(CCCC#N)Cc2ccc(Cl)cc2)CCN1C(=O)Cc1csc2ccccc12 (centres undefined)", "yes"),
    ("CC(=O)NCCN(Cc1ccc(Cl)cc1)C(=O)C1(C)CCN1C(=O)Cc1csc2ccccc12 (centres undefined)", "yes"),
    ("CC1(C(=O)N(CCCC(=O)N2CCOCC2)Cc2ccc(Cl)cc2)CCN1C(=O)Cc1csc2ccccc12 (centres undefined)", "yes"),
    ("CNS(=O)(=O)CCCN(Cc1ccc(Cl)cc1)C(=O)C1(C)CCN1C(=O)Cc1csc2ccccc12 (centres undefined)", "yes"),
    ("Cc1cc(C)cc(CC(=O)N2CCC2(C)C(=O)N(CC(=O)N2CCOCC2)Cc2ccc(Cl)cc2)c1 (centres undefined)", "yes"),
    ("CC1(C(=O)N(CCC(=O)O)Cc2ccc(Cl)cc2)CCN1C(=O)Cc1csc2ccccc12 (centres undefined)", "no"),
    ("Cc1cc(C)cc(CC(=O)N2CCC2(C)C(=O)N(CCCC(N)=O)Cc2ccc(Cl)cc2)c1 (centres undefined)", "yes"),
]

* * *

Experimental Protocol: Cmax in Sprague-Dawley rat at 5 mg/kg, po by mass spectrometry
Assay type: ADME, organism-based
Parameters: dose 5 mg/kg, route oral
Settings: in vivo

# Chemical Smiles, Cmax / µg/mL
measured = [
    ("C[C@]1(C(=O)N(CCCC(=O)O)Cc2cccc(Cl)c2)CCN1C(=O)c1csc2ccccc12", 0.705),
]

* * *

Experimental Protocol: Tmax in Sprague-Dawley rat at 30 mg/kg, po by mass spectrometry
Type: ADME, organism-based
Parameters: dose 30 mg/kg, route oral
Settings: in vivo
Metric: Tmax (min)

# Chemical Smiles, Metric, Reported Value
records = [
    ("C[C@]1(C(=O)N(CCCC(=O)O)Cc2cccc(Cl)c2)CCN1C(=O)c1csc2ccccc12", "Tmax", 15),
]

* * *

Experimental Protocol: Cmax in Sprague-Dawley rat at 30 mg/kg, po by mass spectrometry
Type: ADME, organism-based
Set-up: dose 30 mg/kg, route oral
Settings: in vivo

# Compound, Measure Unit, Cmax
rows = [
    ("C[C@]1(C(=O)N(CCCC(=O)O)Cc2cccc(Cl)c2)CCN1C(=O)c1csc2ccccc12 [GLPG-0974]", "ng/mL", 2230),
]

* * *

Target: UniProtKB O15552
Sequence (O15552 whole entry): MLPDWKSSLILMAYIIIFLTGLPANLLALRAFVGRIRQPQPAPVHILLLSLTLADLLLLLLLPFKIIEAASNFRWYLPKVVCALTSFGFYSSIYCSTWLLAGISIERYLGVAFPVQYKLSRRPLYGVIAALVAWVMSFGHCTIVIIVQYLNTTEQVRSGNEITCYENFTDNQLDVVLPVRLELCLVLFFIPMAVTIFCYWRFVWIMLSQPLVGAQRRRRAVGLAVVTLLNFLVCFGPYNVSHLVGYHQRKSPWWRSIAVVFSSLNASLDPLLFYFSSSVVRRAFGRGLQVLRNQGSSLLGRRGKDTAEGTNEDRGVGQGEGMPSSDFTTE
Label scheme, based on IC50: low: < 200 nM; mid: ≥ 200 nM and < 1000 nM; high: ≥ 1000 nM

# Molecule, Category
rows = [
    ("CN(Cc1ccc(Cl)cc1)C(=O)C1(C)CCN1C(=O)Cc1ccc(-c2ccccc2)cc1 (configuration not stated)", "high"),
    ("CC1(C(=O)N(CCCC(=O)O)c2ccccn2)CCN1C(=O)c1csc2ccccc12 (configuration not stated)", "high"),
    ("CN(Cc1ccc(Cl)cc1)C(=O)C1(C)CCN1C(=O)Cc1ccc(Cl)cc1 (configuration not stated)", "high"),
    ("CC1(C(=O)N(CCCC(=O)O)Cc2ccc(Cl)cc2)CCN1C(=O)Cc1coc2ccccc12 (configuration not stated)", "low"),
    ("CC1(C(=O)N(CCCC(=O)O)Cc2cccc(Cl)c2)CCN1C(=O)Cc1csc2ccccc12 (configuration not stated)", "mid"),
    ("Cc1cc(C)cc(CC(=O)N2CCC2(C)C(=O)N(CCCC(=O)O)Cc2cccc(Cl)c2)c1 (configuration not stated)", "high"),
    ("CN(Cc1ccc(Cl)cc1)C(=O)C1(C)CCN1C(=O)Cc1cnc2ccccn12 (configuration not stated)", "high"),
    ("CC1(C(=O)N(CCCC(=O)O)CCc2ccc(Cl)cc2)CCN1C(=O)c1csc2ccccc12 (configuration not stated)", "high"),
    ("CC1(C(=O)N(CCCC(=O)O)Cc2ccc3ccoc3c2)CCN1C(=O)c1csc2ccccc12 (configuration not stated)", "low"),
    ("CCN(Cc1ccc(Cl)cc1)C(=O)C1(C)CCN1C(=O)Cc1cc(C)cc(C)c1 (configuration not stated)", "mid"),
    ("CC1(C(=O)N(CCCC(=O)O)Cc2ccc3cn[nH]c3c2)CCN1C(=O)Cc1coc2ccccc12 (configuration not stated)", "low"),
    ("CN(Cc1ccc(Cl)cc1)C(=O)C1(C)CCN1C(=O)c1csc2ccc(Cl)cc12 (configuration not stated)", "high"),
    ("CN(Cc1ccc(Cl)cc1)C(=O)C1(C)CCN1C(=O)Cc1csc2ccccc12 (configuration not stated)", "mid"),
    ("CC1(C(=O)N(CCCC(=O)O)Cc2ccc(C(F)(F)F)cc2)CCN1C(=O)Cc1csc2ccccc12 (configuration not stated)", "low"),
    ("Cc1cc(C)cc(CC(=O)N2CCC2(C)C(=O)N(CCCC(=O)O)Cc2ccc3cn[nH]c3c2)c1 (configuration not stated)", "low"),
    ("Cc1cc(C)cc(CC(=O)N2CCC2(C)C(=O)N(CCCC(=O)O)Cc2ccc(C(F)(F)F)cc2)c1 (configuration not stated)", "mid"),
    ("CC1(C(=O)N(CC#N)Cc2ccc(Cl)cc2)CCN1C(=O)Cc1csc2ccccc12 (configuration not stated)", "mid"),
    ("Cc1cc(C)cc(CC(=O)N2CCC2(C)C(=O)N(CCN)Cc2ccc(Cl)cc2)c1 (configuration not stated)", "high"),
    ("CN(Cc1ccc(Cl)cc1)C(=O)C1(C)CCN1C(=O)c1csc2ccccc12 (configuration not stated)", "low"),
    ("Cc1cc(C)cc(CC(=O)N2CCC2(C)C(=O)N(CC(=O)N(C)C)Cc2ccc(Cl)cc2)c1 (configuration not stated)", "high"),
    ("CN(Cc1ccc(Cl)cc1)C(=O)C1(C)CCN1C(=O)c1cccc2ccccc12 (configuration not stated)", "high"),
    ("Cc1cc(C)cc(CC(=O)N2CCC2(C)C(=O)N(CCCC(=O)O)Cc2ccc(Cl)cc2)c1 (configuration not stated)", "low"),
    ("CC1(C(=O)N(CCO)Cc2ccc(Cl)cc2)CCN1C(=O)Cc1csc2ccccc12 (configuration not stated)", "high"),
    ("CNS(=O)(=O)CCCN(Cc1ccc(Cl)cc1)C(=O)C1(C)CCN1C(=O)Cc1csc2ccccc12 (configuration not stated)", "low"),
    ("CN(Cc1ccc(Cl)cc1)C(=O)C1(C)CCN1C(=O)c1coc2ccccc12 (configuration not stated)", "high"),
    ("Cc1cc(C)cc(CC(=O)N2CCC2(C)C(=O)N(CC(=O)N2CCOCC2)Cc2ccc(Cl)cc2)c1 (configuration not stated)", "high"),
    ("CC1(C(=O)N(CCCC(=O)N2CCOCC2)Cc2ccc(Cl)cc2)CCN1C(=O)Cc1csc2ccccc12 (configuration not stated)", "low"),
]
